Listed here are compounds together with their documented growth.
# System: RXF 393 renal
# Assay method text: NCI-60 one-dose screen, 48 h (100 = growth as untreated, 0 = no growth, -100 = all killed)
# Condition description: 10 µM unless noted
# Protocol: Cells are grown in 96 well plates and exposed to the test compound for 48 hours. Compounds are tested at a single concentration, which is 10^-5 M for most compounds. The reported endpoint is percent growth (GI% or GIPRCNT), where numbers from 0 - 100% represent growth inhibition, and numbers from -100% - 0 represent cell death. For example, a value of 40 represents 60% growth inhibition. A value of 0 means no net growth occurred over the course of the experiment. […]
Compounds without any hit were thinned out: in the full panel of roughly 83,000, 20% have a hit.
Only the number, expressed in %, is required.

Prompt line: What growth value was documented for this compound, O=C(CSc1nnc(Cc2ccccc2Nc2c(Cl)cccc2Cl)n1-c1ccccc1)N1N=C(c2ccc3ccccc3c2)CC1c1ccc(Cl)cc1 (stereo unspecified) ?
Response line: 124

Prompt line: What growth value was documented for this compound, CCCCCCCOc1cccc(/C=C2\N=C3SCCCN3C2=O)c1 ?
Response line: 116

Prompt line: What growth value was documented for this compound, CSC1=N/C(=C\c2cccc(OCc3ccc(Cl)cc3)c2)C(=O)N1 ?
Response line: 104

Prompt line: What growth value was documented for this compound, O=C(N/N=C/c1ccc([N+](=O)[O-])o1)c1ccc(O)cc1 ?
Response line: 82.5

Prompt line: What growth value was documented for this compound, COc1cccc(/C=N\Nc2ccc([N+](=O)[O-])cn2)c1O ?
Response line: 72.8

Prompt line: What growth value was documented for this compound, COc1ccc(C(=O)O)cc1.[Ag] ?
Response line: 100

====

# Test system: SK-MEL-5 melanoma
# Assay method text: NCI-60 one-dose screen, 48 h (100 = growth as untreated, 0 = no growth, -100 = all killed)
# Condition description: 10 µM unless noted
The panel holds about 83,000 compounds, 20% with a hit somewhere; the sample as a whole holds those more often.
Reported endpoint: growth (%)
Only the number, expressed in %, is required.

# count of solved cases: 2
- Molecule: "CC(C)(C)c1cc(C[P+](c2ccccc2)(c2ccccc2)c2ccccc2)cc(C(C)(C)C)c1O"
  growth (%): -96.9
- Molecule: "O=C(CCl)N1c2ccccc2Oc2ccc3ccccc3c21"
  growth (%): 3.7

Prompt line: What growth value was documented for this molecule, COc1ccc(Cl)cc1Nc1nc(C(F)(F)F)ccc1C(=O)NN ?
Response line: 77.5

Prompt line: What growth value was documented for this molecule, CC(=O)Oc1ccccc1C(=O)Nc1ncc([N+](=O)[O-])s1 ?
Response line: 22.8

Prompt line: What growth value was documented for this molecule, O=C(O)C(CCc1ccccc1)NCc1ccccc1 (stereo unspecified) ?
Response line: 109

Prompt line: What growth value was documented for this molecule, C=CCOc1ccc2c(C)cc(=O)oc2c1 ?
Response line: 108

Prompt line: What growth value was documented for this molecule, Clc1ccc(-c2nc(-c3cccs3)no2)cc1 ?
Response line: 87.9

====

# Test system: 786-0 renal
# Assay method text: NCI-60 one-dose screen, 48 h
# Condition description: 10 µM unless noted
Compounds without any hit were thinned out: in the full panel of roughly 83,000, 20% have a hit. Active and inactive are the calls of the source. Rule for the calls: active = growth percent below 10; inactive = the rest.
Permitted responses: active, inactive

Prompt line: Any idea what this test logged for FC(F)(F)c1nn[nH]n1 ?
Response line: inactive

Prompt line: Any idea what this test logged for Nc1nc(NC2CC2)cc(-c2cccc(Cl)c2Cl)n1 ?
Response line: inactive

Prompt line: Any idea what this test logged for O=C(/C=C/c1cn(-c2ccccc2)nc1-c1ccccc1)OCc1cn(-c2cccc([N+](=O)[O-])c2)nn1 ?
Response line: inactive

Prompt line: Any idea what this test logged for CC(C)=CC[C@@H]1CC2(CC=C(C)C)C(=O)C(OC3(C(=O)c4ccccc4)C(=O)C4(CC=C(C)C)C[C@@H](CC=C(C)C)C(C)(C)C(CC=C(C)C)(C4=O)C3=O)(C(=O)c3ccccc3)C(=O)C(CC=C(C)C)(C2=O)C1(C)C (stereo partly specified) ?
Response line: inactive

Prompt line: Any idea what this test logged for COc1ccc(-c2cnc(-c3ccncc3-c3cccc(OC)c3)o2)cc1 ?
Response line: inactive

Prompt line: Any idea what this test logged for S=C(Nc1ccc(Cl)cc1)Nc1ccc(Cl)cc1 (tested in a mixture with another compound) ?
Response line: inactive

Prompt line: Any idea what this test logged for COc1cc(NCC(O)CN(CC(C)C)CC(C)C)c2ncccc2c1 (stereo unspecified) ?
Response line: inactive

Prompt line: Any idea what this test logged for O/N=C1\c2ccccc2-c2ccc(Br)cc21 ?
Response line: inactive

====

# Test system: HCC-2998 colon
# Assay method text: NCI-60 one-dose screen, 48 h (100 = growth as untreated, 0 = no growth, -100 = all killed)
# Condition description: 10 µM unless noted
This is part of a sample that, as a whole, favours compounds with a hit. Of some 83,000 tested, about 20% had one in any assay.
Listed here are compounds together with their documented growth.
Only the number, expressed in %, is required.

Prompt line: What growth value was documented for this compound, O=C1Nc2ccccc2/C1=C\c1nc(C2CCN(S(=O)(=O)c3ccc(F)cc3)CC2)n2ccccc12 ?
Response line: 59.8

Prompt line: What growth value was documented for this compound, COc1ccc(C2NC(=O)c3cc4c(cc3N2)OCO4)cc1 (stereo unspecified) ?
Response line: 9.52

Prompt line: What growth value was documented for this compound, C=CCOC(=O)C1=C(C)NC2=C(C(=O)CCC2)C1c1ccc(F)cc1 (stereo unspecified) ?
Response line: 104

Prompt line: What growth value was documented for this compound, COC1(OC)C2(Cl)CCC1(Cl)C(Cl)=C2Cl ?
Response line: 103

Prompt line: What growth value was documented for this compound, O=C(CCl)Nc1cc(O)c2c(c1)C(=O)c1cccc(O)c1C2=O ?
Response line: -42.3

====

# Tested on: HOP-92 NSCLC
# Assay method text: NCI-60 one-dose screen, 48 h
# Condition description: 10 µM unless noted
Compounds without any hit were thinned out: in the full panel of roughly 83,000, 20% have a hit. Calls of active or inactive are those of the source. How the source made its calls: active means growth percent below 10; inactive means the rest.
Permitted responses: TRUE for active, FALSE for inactive

Example cases with answers are listed next.
- Compound: "ClC1=NC(Cl)C(Cl)=N/C1=N\\c1ncn[nH]1 (stereo not given)"
  Target or system: "HOP-92 NSCLC"
  Class assignment: "TRUE"
- Compound: "CC(=O)C1CCC2C3CC(C)=C4CC(O)CCC4(C)C3CCC12C (stereo not given)"
  Target or system: "HOP-92 NSCLC"
  Class assignment: "FALSE"
- Compound: "O=C(c1ccc(OCCN2CCCCC2)cc1)c1c(-c2ccc(O)cc2)sc2cc(O)ccc12"
  Target or system: "HOP-92 NSCLC"
  Class assignment: "FALSE"
- Compound: "COc1ccc(-n2nc(C(=O)Nc3ccc(F)cc3)nc2-c2cc(OC)c(OC)c(OC)c2)cc1"
  Target or system: "HOP-92 NSCLC"
  Class assignment: "FALSE"
- Compound: "CCN(CC)CCCCCCCCNc1c2ccc(Cl)cc2nc2ccc(OC)cc12"
  Target or system: "HOP-92 NSCLC"
  Class assignment: "TRUE"

Kindly consider the entry below.
Prompt line: Any idea what this test logged for O=C1OC(/C=C/c2ccccc2)=NC/1=C/c1ccccc1[N+](=O)[O-] ?
Response line: FALSE

====

# Tested on: M14 melanoma
# Assay method text: NCI-60 one-dose screen, 48 h (100 = growth as untreated, 0 = no growth, -100 = all killed)
# Condition description: 10 µM unless noted
The panel holds about 83,000 compounds, 20% with a hit somewhere; the sample as a whole holds those more often. The source made the active and inactive calls. How the source made its calls: active means growth percent below 10; inactive means the rest.
Reported endpoint: growth

# count of solved cases: 3
- Compound: "CN(C)CC(=O)c1ccc2cc(Br)c3ccccc3c2c1"
  Target or system: "M14 melanoma"
  Endpoint value: "77.2% (inactive)"
- Compound: "Oc1c(C(Nc2ccccc2Br)c2ccccc2)ccc2cccnc12 (stereo unspecified)"
  Target or system: "M14 melanoma"
  Endpoint value: "-14.2% (active)"
- Compound: "CC(C)[C@@]12C[C@@H](OC(=O)[C@H]3CO3)[C@@](C)(O1)[C@@H]1CC[C@@H](C)[C@H]1[C@@H]2OC(=O)/C=C/c1ccccc1"
  Target or system: "M14 melanoma"
  Endpoint value: "102% (inactive)"

Prompt line: What growth value was documented for this compound, CC(C)(C)c1ccc(C(=O)Nc2sc3cc(O)ccc3c2C(N)=O)cc1 ?
Response line: 22.1% (inactive)

Prompt line: What growth value was documented for this compound, CN(C)c1nc(-c2cccs2)n2nc(-c3ccco3)cc2n1 ?
Response line: 98% (inactive)

Prompt line: What growth value was documented for this compound, CN(C)c1nc(-c2cccs2)n2nc(-c3ccc(Cl)cc3)cc2n1 ?
Response line: 61.4% (inactive)

Prompt line: What growth value was documented for this compound, CN1C(=O)C(C2=NNC(c3ccccc3C(=O)O)C2)C(=O)N(C)C1=O (stereo unspecified) ?
Response line: 103% (inactive)

Prompt line: What growth value was documented for this compound, N/C(=N\OC(=O)c1ccccc1)C(C(=O)NOC(=O)c1ccccc1)C1CCCCC1 (stereo unspecified) ?
Response line: 75.2% (inactive)

Prompt line: What growth value was documented for this compound, COc1ccccc1/C=C/C(=O)CCC(=O)O ?
Response line: 99.8% (inactive)

Prompt line: What growth value was documented for this compound, C(=Nc1ccc(-c2ccc(N=Cc3ccccc3)cc2)cc1)c1ccccc1 ?
Response line: 104% (inactive)

Prompt line: What growth value was documented for this compound, CCN(CC)CC(=O)Nc1c(C)cc(C(=O)NN)cc1C ?
Response line: 96.2% (inactive)

Prompt line: What growth value was documented for this compound, COC(=O)c1ccc2c(c1)nc(-c1cc3ccccc3[nH]c1=O)n2-c1cc(C(C)(C)C)[nH]n1 ?
Response line: 58.2% (inactive)

Prompt line: What growth value was documented for this compound, CC1=C(O)C(=O)CC1 ?
Response line: 105% (inactive)

Prompt line: What growth value was documented for this compound, COc1ccc(-c2cc(-c3cn(-c4cccc(Cl)c4)nc3-c3ccc(OC)cc3)[nH]c(=S)n2)cc1 ?
Response line: 92% (inactive)

Prompt line: What growth value was documented for this compound, CCN(CC)CCCC(C)Nc1c(-c2ccccc2)cnc2cc(Cl)ccc12 (stereo unspecified) ?
Response line: -95.7% (active)

Prompt line: What growth value was documented for this compound, COc1cc2ncnc(Nc3ccc(S(=O)(=O)Nc4nccs4)cc3)c2cc1OCCCN1CCOCC1 ?
Response line: 107% (inactive)

Prompt line: What growth value was documented for this compound, NC(=S)N1N=C(c2ccc(Cl)cc2)CC1c1cc2ccccc2[nH]c1=O (stereo unspecified) ?
Response line: 111% (inactive)

Prompt line: What growth value was documented for this compound, O=C(Nc1cccc(-n2ccc3c(NC(=O)c4ccccc4)nccc32)c1)c1ccc(N2CCOCC2)c(C(F)(F)F)c1 ?
Response line: 38.6% (inactive)

Prompt line: What growth value was documented for this compound, CCOC(=O)c1ccc(NC(=O)CSC(N)=O)cc1 ?
Response line: 94.8% (inactive)

Prompt line: What growth value was documented for this compound, Fc1cc(-c2cnc3nonc3n2)c(Cl)cc1Cl ?
Response line: 76.8% (inactive)

Prompt line: What growth value was documented for this compound, COc1ncnc2[nH]cc(CN3CCN(c4ccc(F)cc4)CC3)c12 ?
Response line: 106% (inactive)
